Biological target: human NMDAR1A + NMDAR2A (Homo sapiens, UniProt Q05586+Q12879)
Construct: to generate the full-length construct NMDAR1A; Full-length DNAs encoding human NMDA receptor subunits have been inserted into vectors pcDNA1, pMMTVT7(+), pCMV-T7-2 and pCMV-T7-3
Sequence (Q12879 23-1464, other chains not shown): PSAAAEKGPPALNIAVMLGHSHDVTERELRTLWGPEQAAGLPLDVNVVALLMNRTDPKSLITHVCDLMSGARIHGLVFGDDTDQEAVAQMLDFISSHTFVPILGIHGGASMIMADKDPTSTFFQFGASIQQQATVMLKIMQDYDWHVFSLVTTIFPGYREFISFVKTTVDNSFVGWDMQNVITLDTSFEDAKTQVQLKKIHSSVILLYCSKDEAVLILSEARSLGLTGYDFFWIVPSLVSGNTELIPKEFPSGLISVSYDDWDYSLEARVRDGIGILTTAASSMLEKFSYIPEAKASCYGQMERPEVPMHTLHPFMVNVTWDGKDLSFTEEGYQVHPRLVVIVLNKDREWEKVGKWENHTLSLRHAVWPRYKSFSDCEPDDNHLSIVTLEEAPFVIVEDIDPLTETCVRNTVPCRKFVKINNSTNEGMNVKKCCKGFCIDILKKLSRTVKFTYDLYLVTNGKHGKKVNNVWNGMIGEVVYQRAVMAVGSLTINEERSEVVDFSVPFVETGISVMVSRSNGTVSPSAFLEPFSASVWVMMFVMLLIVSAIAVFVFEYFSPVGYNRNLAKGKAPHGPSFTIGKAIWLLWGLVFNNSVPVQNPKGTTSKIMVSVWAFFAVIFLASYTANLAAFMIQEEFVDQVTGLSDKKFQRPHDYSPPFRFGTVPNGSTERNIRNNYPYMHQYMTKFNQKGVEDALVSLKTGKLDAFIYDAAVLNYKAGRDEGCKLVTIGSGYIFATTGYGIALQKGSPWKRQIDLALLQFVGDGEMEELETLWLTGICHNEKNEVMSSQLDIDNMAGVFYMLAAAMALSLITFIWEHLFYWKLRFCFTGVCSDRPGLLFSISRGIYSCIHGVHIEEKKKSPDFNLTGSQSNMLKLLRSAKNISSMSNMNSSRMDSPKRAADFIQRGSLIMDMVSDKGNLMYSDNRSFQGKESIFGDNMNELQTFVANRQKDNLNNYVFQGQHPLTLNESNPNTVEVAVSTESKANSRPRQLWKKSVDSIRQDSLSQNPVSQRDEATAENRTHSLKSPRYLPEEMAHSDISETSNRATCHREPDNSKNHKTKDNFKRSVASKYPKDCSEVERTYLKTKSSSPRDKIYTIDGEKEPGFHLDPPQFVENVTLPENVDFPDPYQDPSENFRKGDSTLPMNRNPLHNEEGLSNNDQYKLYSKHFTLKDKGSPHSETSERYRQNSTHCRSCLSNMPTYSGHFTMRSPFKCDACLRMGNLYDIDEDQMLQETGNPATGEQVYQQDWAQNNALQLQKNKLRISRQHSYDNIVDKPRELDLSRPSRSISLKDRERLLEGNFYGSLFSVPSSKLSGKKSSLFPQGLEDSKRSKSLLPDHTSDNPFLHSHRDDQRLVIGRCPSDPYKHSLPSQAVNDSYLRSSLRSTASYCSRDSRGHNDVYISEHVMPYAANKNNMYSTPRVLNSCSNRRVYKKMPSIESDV
Assay: Two-electrode voltage clamp of Xenopus oocytes co-injected with NMDAR1A and pCMV-hNMDAR2A-3(53) transcripts
quantity_name: EC50 (µM)
// note: answer is a bare numeric in µM

Problem: Report EC50 under test system human NMDAR1A + NMDAR2A (Homo sapiens, UniProt Q05586+Q12879) for NCC(=O)O .
Result: 1.9

----------
Target: human NMDAR1A + NMDAR2A + NMDAR2C (Homo sapiens, UniProt Q05586+Q12879+Q14957)
Construct: other: 50 ng each transcript; co-applied with 100 μM NMDA; mean±S.D. of
Assay: cell-based
quantity_name: pEC50
The meaning of pEC50 here: minus log10 of the concentration in molar units.

Problem: For NCC(=O)O [glycine] , write its pEC50.
Result: 6.06
